Numbers sourced from PubChem BioAssay (NCI).

Test system: SF-539 CNS
Assay: NCI-60 one-dose screen, 48 h (100 = growth as untreated, 0 = no growth, -100 = all killed)
Conditions: 10 µM unless noted
The panel holds about 83,000 compounds, 20% with a hit somewhere; the sample as a whole holds those more often.
OBSERVATION TYPE: growth (%)

>>> test_value("CS(=O)(=O)Nc1cc(-c2ccc3ncc(C#N)c(N[C@H](CO)c4ccccc4)c3c2)cnc1Cl")
43.7
>>> test_value("C/C(=N\\O)[C@H]1C[C@]23CC[C@]4(C)[C@H](CC[C@@H]5[C@@]6(C)CC/C(=N/O)C(C)(C)[C@@H]6CC[C@]54C)[C@H]2[C@H](C)C1(C)OC3")
103
>>> test_value("O=C(NNc1nc2cc(F)c(F)cc2n2cccc12)c1cnccn1")
19.9
>>> test_value("COc1cc(-c2nn(C(C)(C)C)cc2-c2ccnc(NCCCNS(=O)(=O)c3cccc(F)c3)n2)ccc1Cl")
88.4
>>> test_value("O=C1[C@@H]2Cc3c([nH]c4ccccc34)[C@H](c3c(Cl)cccc3Cl)N2C(=O)CN1C1CCN(CC2CCCCC2)CC1")
68.8
>>> test_value("COc1ccc(C2c3sc4c(C)cccc4c3Oc3nc(CC(=O)Nc4ccccc4)[nH]c(=O)c32)cc1 (configuration not stated)")
86.9
>>> test_value("CNCc1cccc2c1OCCCCCCC(C)(O)CC(C)(C)S(=O)(=O)c1ccc(cc1)-c1cnc(N)c(n1)C(=O)N2 (configuration not stated)")
-72
>>> test_value("Cn1cc(-c2nnc(N)nc2-c2c[nH]c3ccc(F)cc23)c2cc(F)ccc21")
95.4
>>> test_value("NC(N)=Nc1ccc(Oc2cccc(Nc3ccc(Br)c(C(F)(F)F)c3)c2)cn1")
-50.3
>>> test_value("O=C1/C(=C/C=C/c2ccco2)SC(=S)N1c1ccccc1")
90.3
>>> test_value("Clc1cccc(/C=N/Nc2nc(N/N=C/c3cccc(Cl)c3Cl)nc(N3CCCCC3)n2)c1Cl")
84.3
>>> test_value("Cc1ccc(-c2cc3nc(C(Cl)Cl)nc(-c4ccco4)n3n2)cc1")
-32.6
>>> test_value("NC(N)=Nc1ccc(Oc2cccc(NC(N)=Nc3ccc(Cl)c(C(F)(F)F)c3)c2)cc1")
49.3
>>> test_value("NC(=O)c1cccc(-n2ccc3cc(NC(=O)Nc4ccc(N5CCOCC5)c(C(F)(F)F)c4)ccc32)n1")
-20.5
>>> test_value("C=C=COc1cccc(/C(N)=N/C(N)=N/c2nc3ccccc3s2)c1")
70.4
>>> test_value("COc1cc(Cn2cc3c(c2)-c2onc(CN4CCCC4)c2CC3)cc(OC)c1OC")
92.7
>>> test_value("COc1cc2nc(Cl)nc(Nc3cccc(C4=Nc5c(N)nc(N)nc5NC(c5ccc(F)cc5)C4)c3)c2cc1OC (configuration not stated)")
88.6
>>> test_value("CCOC(=O)c1c(Nc2ccccc2)nn2c(-c3ccccc3)ccnc12")
92.5
>>> test_value("Cc1ccc(C(=O)NN2C(=O)/C(=C/C=C/c3ccco3)SC2=S)cc1")
93.4
>>> test_value("N#C/C(=C\\c1ccc(-c2ccc(Cl)cc2Cl)o1)c1ccc(F)cc1")
89.9
>>> test_value("CCC1=Cc2cc(OC)ccc2OC12C=Cc1cc(OC)ccc1O2 (configuration not stated)")
-23.7
>>> test_value("NS(=O)(=O)c1ccc(Nc2nc(Nc3ccccc3)nc3nnc(SCC(=O)NC4CCCCC4)n23)cc1")
96.1
>>> test_value("CCCCCCCn1cc2c(NCCc3ccccc3)ncnc2n1")
95.9
>>> test_value("COc1ccc(-n2c(/C=C3\\C(=O)Nc4ccccc43)ccc2CO)cc1")
97.5
>>> test_value("N#Cc1c(Nc2ccccc2)nn2c(-c3ccc([N+](=O)[O-])cc3)ccnc12")
100
>>> test_value("NC(N)=Nc1ccc(Oc2cccc(Oc3ccc(Cl)c(C(F)(F)F)c3)c2)cn1")
-79.7
>>> test_value("COc1cc(OC)c(/C=C/S(=O)(=O)Cc2ccc(OC)c(NCC(=O)NO)c2)c(OC)c1")
-5.59

====

Tested on: HCT-15 colon
Assay: NCI-60 one-dose screen, 48 h (100 = growth as untreated, 0 = no growth, -100 = all killed)
Conditions: 10 µM unless noted
Protocol: Growth inhibition of the HCT-15 human tumor cell line is measured as a screen for anti-cancer activity. Cells are grown in 96 well plates and exposed to the test compound for 48 hours. Compounds are tested at a single concentration, which is 10^-5 M for most compounds. The reported endpoint is percent growth (GI% or GIPRCNT), where numbers from 0 - 100% represent growth inhibition, and numbers from -100% - 0 represent cell death. For example, a value of 40 represents 60% growth inhibition. […]
The panel holds about 83,000 compounds, 20% with a hit somewhere; the sample as a whole holds those more often. The source made the active and inactive calls. The calls were made as follows: active = growth percent below 10; inactive = the rest.
OBSERVATION TYPE: growth

>>> test_value("COc1ccc([C@@H]2c3[nH]c4ccccc4c3C[C@H]3C(=O)N(C4CCN(CC5CCCCC5)CC4)CC(=O)N23)c(OC)c1")
"56.5% (inactive)"
>>> test_value("O=[N+]([O-])c1cc(/C=N/Nc2nc(N/N=C/c3ccc(Cl)c([N+](=O)[O-])c3)nc(N3CCCCC3)n2)ccc1Cl")
"49.7% (inactive)"
>>> test_value("CCCCCc1ccc(S(=O)(=O)Nc2cccc(-c3csc(NC(=O)CCCCCN4CCN(CCO)CC4)n3)c2)cc1")
"43.1% (inactive)"
>>> test_value("COc1ccccc1NCc1cccn1Cc1ccc(F)cc1")
"98.3% (inactive)"
>>> test_value("CC1=N[C@@H]2CN(C(=O)OC(C)(C)C)C[C@@H]2n2c1cc1ccccc1c2=O")
"104% (inactive)"
>>> test_value("COC(=O)C1(C)CCC[C@]2(C)[C@H]3C[C@H]4C(C(C)C)=C[C@]3(CC[C@@H]12)[C@H]1[C@@H]4[C@@H](OC(=O)c2ccco2)CC[C@@H]1OC(=O)c1ccco1 (stereo partly drawn)")
"107% (inactive)"
>>> test_value("N#Cc1cccc(CN2CCC3=C(C2)C(=O)N(Cc2ccc(Cl)cc2)C2=NCCCN23)c1")
"16.6% (inactive)"
>>> test_value("COc1cc2nc(Cl)nc(Nc3cccc(C4=Nc5c(N)nc(N)nc5NC(c5ccc(Cl)cc5)C4)c3)c2cc1OC (stereo not drawn)")
"-7.82% (active)"
>>> test_value("CN1CCN(Cc2ccc(NC(=O)c3cncc(C#Cc4cnc5ccc(NCCCO)nn45)c3)cc2C(F)(F)F)CC1")
"1.94% (active)"
>>> test_value("O=C1CCCC2=C1C(c1c[nH]c3ccc(Br)cc13)Cc1cc(Br)ccc1N2 (stereo not drawn)")
"26.5% (inactive)"
>>> test_value("CNC(=O)c1cc(Oc2ccc3nc(NC(=O)c4cc(N5CCOCC5)cc(C(F)(F)F)c4)sc3c2)ccn1")
"58.9% (inactive)"
>>> test_value("COc1ccc2[nH]cc(/C=N/Nc3nc4ccccc4s3)c2c1")
"22.9% (inactive)"
>>> test_value("CCn1c(SCC(=O)Nc2cccc(C(=O)/C=C/c3ccc(C)cc3)c2)nc2ccccc2c1=O")
"49.2% (inactive)"
>>> test_value("Clc1nc2ccccc2nc1-c1nnc(C2CCCCC2)o1")
"71.7% (inactive)"
>>> test_value("O=C(Nc1nonc1-c1ccccc1)c1ccc(C(F)(F)F)cc1")
"80.6% (inactive)"
>>> test_value("CCNC(=O)N1CCc2cc(OC)c(OCCc3ccc(OC)cc3)cc2C1c1ccc(Cl)cc1C (stereo not drawn)")
"9.66% (active)"
>>> test_value("NC(N)=Nc1ccc(Oc2cccc(Nc3ccc(Br)c(C(F)(F)F)c3)c2)cc1")
"69.9% (inactive)"
>>> test_value("CS(=O)(=O)Nc1cc(-c2ccc3ncc(C#N)c(NCc4ccccc4)c3c2)cnc1Cl")
"8.19% (active)"

====

Test system: ACHN renal
Experiment: NCI-60 one-dose screen, 48 h (100 = growth as untreated, 0 = no growth, -100 = all killed)
Conditions: 10 µM unless noted
About 83,000 compounds went through this panel and 20% of them were active in at least one assay; those are over-represented in the sample as a whole.
Here the recorded growth is given for each entry.
OBSERVATION TYPE: growth (%)

>>> test_value("CC1(C)CC[C@]2(CN)CC[C@]3(C)C(=CC[C@@H]4[C@@]5(C)CCCNC(C)(C)[C@@H]5CC[C@]43C)[C@H]2C1")
109
>>> test_value("O=C(/C=C/c1ccc(F)cc1)c1ccc(O)cc1")
102
>>> test_value("Cc1ccc(-n2cc(/C=N/NC(=O)c3nc(N)n[nH]3)c(-c3ccc(S(C)(=O)=O)cc3)n2)cc1")
101
>>> test_value("CNCc1cccc2c1OCCCCCCC(C)(O)CC(C)(C)S(=O)(=O)c1ccc(cc1)-c1cnc(N)c(n1)C(=O)N2 (stereo unspecified)")
10
>>> test_value("CCN1CCN(Cc2ccc(C(=O)Nc3ccc(C)c(Oc4ccc(-c5[nH]nc6ncnc(N)c56)cc4)c3)cc2C(F)(F)F)CC1")
91.9
>>> test_value("COc1ccc(/C=C(/C)c2ccc3ccc(OC)cc3[o+]2)c(O)c1")
70.2
